Cited source: ChEMBL document CHEMBL1671780

So I've got a bunch of compounds here, and I need their log10 Ki values.
- system.under.test: Sigma non-opioid intracellular receptor 1 (Cavia porcellus, UniProt Q60492)
- Sequence (Q60492 whole entry): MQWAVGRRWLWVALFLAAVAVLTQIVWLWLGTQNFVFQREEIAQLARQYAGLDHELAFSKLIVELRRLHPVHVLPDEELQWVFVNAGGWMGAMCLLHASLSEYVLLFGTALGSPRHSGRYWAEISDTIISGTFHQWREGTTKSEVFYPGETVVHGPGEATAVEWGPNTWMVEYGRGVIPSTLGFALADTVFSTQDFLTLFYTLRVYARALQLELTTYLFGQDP
- assay.method.text: Displacement of [3H]-(+)-pentazocine from sigma 1 receptor in Dunkin guinea pig brain membrane without cerebellum
- Format: cell membranes
Use the decimal logarithm of Ki (µM).

For COc1cccc2c1CCC[C@H]2NC(=O)CN1CCN(C2CCCCC2)CC1 , write its log10 Ki.
-1.69

State its log10 Ki for this compound: COc1cccc2c1CCC[C@@H]2NCCN1CCN(C2CCCCC2)CC1
-1.63

Give reported log10 Ki value for COc1cccc2c1CCCC2NC(=O)CN1CCN(C2CCCCC2)CC1 (racemic)
-1.90

Could you please provide reported log10 Ki for COc1cccc2c1CCCC2N(C)CCN1CCN(C2CCCCC2)CC1 (racemic) ? Thanks!
-2.38

Tell us which log10 Ki value is on record for COc1cccc2c1CCC[C@@H]2OCCN1CCN(C2CCCCC2)CC1
-2.49

Output log10 Ki of COc1cccc2c1CCC[C@H]2OCCN1CCN(C2CCCCC2)CC1
-2.66

State its log10 Ki: COc1cccc2c1CCCC2OCCN1CCN(C2CCCCC2)CC1 (racemic)
-2.41

Look up and state reported log10 Ki for COc1cccc2c1CCCC2NCCN1CCN(C2CCCCC2)CC1 (racemic)
-1.62

Give the value of log10 Ki reported for the following: COc1cccc2c(NCCN3CCN(C4CCCCC4)CC3)cccc12
-2.26

In one line, give reported log10 Ki of the entry COc1cccc2c1CCC[C@H]2NCCN1CCN(C2CCCCC2)CC1 .
-1.87

// Input: COc1cccc2c(NC(=O)CN3CCN(C4CCCCC4)CC3)cccc12 . Output its log10 Ki only.
-1.37

Recall and state the measured log10 Ki for COc1cccc2c1CCC[C@@H]2NC(=O)CN1CCN(C2CCCCC2)CC1 .
-1.02

Supply recorded log10 Ki for COc1cccc2c1OCCC2CCCN1CCN(C2CCCCC2)CC1 (racemic) here.
-1.90
